Where do these numbers come from? They come from PubChem BioAssay (Tox21).

# targetUnderTest: Peroxisome proliferator-activated receptor gamma (Homo sapiens) (UniProt P37231)
# Sequence (P37231 whole entry, looked up): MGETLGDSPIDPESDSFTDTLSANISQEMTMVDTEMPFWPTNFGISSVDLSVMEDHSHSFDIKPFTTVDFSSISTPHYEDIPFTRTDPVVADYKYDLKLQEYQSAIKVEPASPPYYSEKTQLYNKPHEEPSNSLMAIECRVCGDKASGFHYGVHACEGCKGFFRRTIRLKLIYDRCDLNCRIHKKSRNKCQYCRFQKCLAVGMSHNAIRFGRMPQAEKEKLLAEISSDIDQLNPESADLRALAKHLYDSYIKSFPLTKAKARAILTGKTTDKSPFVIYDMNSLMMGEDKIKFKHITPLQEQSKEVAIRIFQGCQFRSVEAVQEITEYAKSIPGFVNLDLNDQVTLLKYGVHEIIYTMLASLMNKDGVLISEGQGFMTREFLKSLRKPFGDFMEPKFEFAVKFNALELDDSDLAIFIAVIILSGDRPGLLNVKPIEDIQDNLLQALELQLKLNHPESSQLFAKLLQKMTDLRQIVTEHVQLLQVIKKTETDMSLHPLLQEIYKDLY
# experimentDescription: qHTS assay to identify small molecule antagonists of the peroxisome proliferator-activated receptor gamma (PPARg) signaling pathway (AID 743191); note: nearly all actives have a fitted effect of over 30% in size
# measurementParameters: HEK293H PPARg-UAS-bla, beta-lactamase ratio, antagonist, 17 h; series mostly up to 62.6 µM
Results filed as inconclusive are left out. Calls of active or inactive are those of the source. Calls come from the whole dose curve.
observedProperty: outcome

[[record]]
molecule = "Cc1ccc(C(=O)O)o1"
result = "inactive"

[[record]]
molecule = "O=S(=O)(Oc1ccc(Cl)cc1Cl)c1ccccc1"
result = "inactive"

[[record]]
molecule = "O=[N+]([O-])c1cccc(Cl)c1"
result = "inactive"

[[record]]
molecule = "C[C@@H](O)[C@H]1C(=O)N2C(C(=O)O)=C(S[C@@H]3CN[C@H](C(=O)N(C)C)C3)[C@H](C)[C@H]12"
result = "inactive"

[[record]]
molecule = "CC(=O)Nc1ccc(C(=O)O)cc1"
result = "inactive"

[[record]]
molecule = "NCc1cccc(CN)c1"
result = "inactive"

[[record]]
molecule = "O=C(O)c1cc(-c2ccccc2)nc2ccccc12"
result = "inactive"

[[record]]
molecule = "CC1CC(OC(=O)c2ccccc2O)CC(C)(C)C1 (centres undefined)"
result = "inactive"

[[record]]
molecule = "CC(C)(C)C1CCC(O)CC1 (centres undefined)"
result = "inactive"

[[record]]
molecule = "Nc1c(S(=O)(=O)O)cc(Br)c2c1C(=O)c1ccccc1C2=O"
result = "inactive"

[[record]]
molecule = "COC(=O)c1ccc(C(=O)OC)cc1"
result = "inactive"

[[record]]
molecule = "CC(C)(N=C=O)c1cccc(C(C)(C)N=C=O)c1"
result = "inactive"

[[record]]
molecule = "CCCCCCOC(C)=O"
result = "inactive"

[[record]]
molecule = "OC[C@@H](O)[C@@H](O)[C@H](O)[C@@H](O)CO"
result = "inactive"

